biological target: human APJ receptor (Homo sapiens, UniProt P35414); construct: expressed in transfected cells; host or cells: HEK293; experiment: Intracellular cAMP Accumulation Assay (APJ hcAMP, HTRF); assay type: cell-based; conditions: human APJ, intracellular cAMP accumulation; read-out: hAPJ cAMP EC50 Potency range
Sequence (P35414 whole entry): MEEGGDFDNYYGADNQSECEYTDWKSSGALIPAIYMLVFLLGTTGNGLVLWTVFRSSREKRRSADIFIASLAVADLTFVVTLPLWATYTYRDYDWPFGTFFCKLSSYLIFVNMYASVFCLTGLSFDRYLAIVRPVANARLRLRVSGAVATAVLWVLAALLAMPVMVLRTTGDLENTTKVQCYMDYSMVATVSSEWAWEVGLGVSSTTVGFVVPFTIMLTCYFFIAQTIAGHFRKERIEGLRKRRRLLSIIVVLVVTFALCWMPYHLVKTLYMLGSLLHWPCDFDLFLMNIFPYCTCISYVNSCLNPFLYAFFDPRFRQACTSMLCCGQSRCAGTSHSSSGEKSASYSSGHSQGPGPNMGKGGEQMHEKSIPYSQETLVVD
pEC50: −log10 of the molar value.
Result Type: pEC50

C=CCCc1nc(=O)c(C(=O)N2CC[C@H](c3ccccc3)C2)c(O)n1-c1c(C)cccc1OC [Example 35] ... 8.00 to 11.00
COc1cccc(OC)c1-n1c(CCC2CC2)nc(=O)c(C(=O)N2CCC(c3ncc(Cl)cc3F)C2)c1O (single isomer, unassigned) [Example 180] ... 8.00 to 11.00
CC[C@@H](c1cc(F)cc(F)c1)n1c(-c2ccn(CC)n2)nc(=O)c(C(=O)N2CCC(c3cc(F)ccn3)C2)c1O (single isomer, unassigned) [Example 202] ... 8.00 to 11.00
CC[C@@H](c1cc(F)cc(F)c1)n1c(-c2cnn(C)c2)nc(=O)c(C(=O)N2CCC(c3ccc(Cl)cn3)C2)c1O (single isomer, unassigned) [Example 218] ... 8.00 to 11.00

Then there is this molecule:
Find the recorded pEC50 belonging to COc1cccc(OC)c1-n1c(COC2CC2)nc(=O)c(C(=O)N2CCC(c3ccccc3F)C2)c1O (single isomer, unassigned) [Example 13] and report it.
8.00 to 11.00
